# PROCEDURE DETAILS: Aqueous solubility at pH 1
# Type: physicochemical
EXPERIMENTAL READOUT: solubility (µg/mL)

I = Cc1nc(C(F)(F)F)ccc1C(=O)Nc1ccc(Cl)c(-c2nc3ccccc3[nH]2)c1
II = Cc1nc(C(F)(F)F)ccc1C(=O)Nc1ccc(Cl)c(-c2cnc3ccccc3n2)c1
III = Cc1nc(C(F)(F)F)ccc1C(=O)Nc1ccc(Cl)c(-c2ccccn2)c1
Task item: Order the items by recorded solubility; the first position goes to the largest value. Use the labels to give the ranking in the order requested.
Reply: III, I, II
(III: 1000 µg/mL, I: 300 µg/mL, II: 0.1 µg/mL)
